biological target: hGcgR (Homo sapiens, UniProt P47871); experiment: Functional cAMP activation in the presence of 0.1% casein (no HSA); type: cell-based; settings: in the presence of 0.1% casein (no HSA); geometric mean; read-out: Relative cAMP EC50, hGcgR;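 further: intracellular cAMP rise after 30 min at 37 °C, read by HTRF against a cAMP standard curve, scaled from buffer only (0%) to maximal control ligand response (100%)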
Sequence (P47871 26-477): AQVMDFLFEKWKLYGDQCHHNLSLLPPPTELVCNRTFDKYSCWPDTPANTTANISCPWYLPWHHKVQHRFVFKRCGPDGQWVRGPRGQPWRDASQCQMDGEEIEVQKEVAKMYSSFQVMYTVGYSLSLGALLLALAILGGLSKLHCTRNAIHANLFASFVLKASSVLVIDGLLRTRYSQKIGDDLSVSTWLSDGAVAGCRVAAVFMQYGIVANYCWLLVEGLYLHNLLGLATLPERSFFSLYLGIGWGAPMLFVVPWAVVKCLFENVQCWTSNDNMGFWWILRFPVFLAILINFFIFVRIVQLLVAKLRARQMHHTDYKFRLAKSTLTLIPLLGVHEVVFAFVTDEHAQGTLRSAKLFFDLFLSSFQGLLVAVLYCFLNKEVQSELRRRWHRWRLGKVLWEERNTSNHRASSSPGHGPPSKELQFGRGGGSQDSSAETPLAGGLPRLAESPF
Starred links: 1 amine or outer side, 2 acyl side, 3 side chain; linkers in the order of their positions; H or OH if unused. Non-standard residues stand in square brackets, D forms with d. Groups on a side chain read outwards from the residue. No end group written: not given here. *: point of attachment. C20 diacid = O=C(O)CCCCCCCCCCCCCCCCCCC(=O)*; C18 diacid = O=C(O)CCCCCCCCCCCCCCCCC(=O)*; γGlu = O=C(O)[C@H](CCC(=O)[*:2])N[*:1]; αMe4Pal = C[C@](N)(Cc1ccncc1)C(=O)O; αMeY = C[C@](N)(Cc1ccc(O)cc1)C(=O)O; 4Pal = N[C@@H](Cc1ccncc1)C(=O)O; αMeL = CC(C)C[C@](C)(N)C(=O)O; Orn = NCCC[C@H](N)C(=O)O; AEEA = NCCOCCOCC(=O)O; Aib = CC(C)(N)C(=O)O
Friendly reminder: EC50 below 5 nM is y, at or above is n.

{"columns": ["substance", "cat"],
 "data": [
  ["H-Y[Aib]QGTFTSDFS[Orn][αMeL]LDKK([AEEA-AEEA-γGlu-C18 diacid])AQ[Aib]AFIEYLLE[Aib]GPSSGAPPPSGT-NH2 [Example 165]", "y"],
  ["Y[Aib]QGTFTSD[4Pal]S[Orn][αMeL]LD[Orn]K([AEEA-γGlu-C18 diacid])AQ[Aib]AFIE[αMeY]LLEGGPSSGAPPPSGS-NH2 [Example 933]", "n"],
  ["H-Y[Aib]QGTFTSDFS[Orn][αMeL]LDKK([AEEA-γGlu-C18 diacid])AQ[Aib]AFIEWLLEGGTSSGAPPPSGS-NH2 [Example 176]", "y"],
  ["H-Y[Aib]QGTFTSD[4Pal]SQ[αMeL]LDKK([γGlu-γGlu-C18 diacid])AQ[αMe4Pal]AFIEYLIAGGPSSGAPPPEGS-NH2 [Example 969]", "n"],
  ["H-Y[Aib]QGTFTSD[4Pal]SR[αMeL]LDKK([AEEA-γGlu-C18 diacid])AQ[Aib]AFIEYLLE[Aib]GESSGAPPPSGS-NH2 [Example 132]", "y"],
  ["H-Y[Aib]QGTFTSDFS[Orn][αMeL]LDKK([AEEA-AEEA-γGlu-C20 diacid])AQ[Aib]AFIEYLLE[Aib]GPSSGEPPPGEG-NH2 [Example 69]", "y"]
]}
